Some molecules, each annotated with its measured pIC50.
experiment: cells; details: Homo sapiens, HMEC-1, 72 h
Description: Cytotoxicity against human HMEC1 cells after 72 hrs by MTT assay
Quick note: pIC50 values are minus log10 of concentrations in mol/L.

Sample records with pIC50:
CC[C@H]1C[C@@]23OC(=O)C(=C2O)C(=O)[C@]2(CC)[C@@H](C=C[C@@H]4[C@@H](O[C@H]5C[C@@H](O)[C@H](NC(=O)c6[nH]ccc6Br)[C@@H](C)O5)[C@@H](C)CC[C@@H]42)CCCC/C=C/[C@@]3(C)C=C1C(=O)O	4.37
CC[C@H]1C[C@@]23OC(=O)C(=C2O)C(=O)[C@]2(CC)[C@@H](C=C[C@@H]4[C@@H](O[C@H]5C[C@@H](O)[C@H](NC(=O)c6[nH]cc(Br)c6Br)[C@@H](C)O5)[C@@H](C)CC[C@@H]42)CCCC/C=C/[C@@]3(C)C=C1C(=O)O	5.52
CC[C@H]1C[C@@]23OC(=O)C(=C2O)C(=O)[C@]2(CC)[C@@H](C=C[C@@H]4[C@@H](O[C@H]5C[C@@H](O)[C@H](NC(=O)c6[nH]c(Cl)c(Cl)c6Cl)[C@@H](C)O5)[C@@H](C)CC[C@@H]42)CCCC/C=C/[C@@]3(C)C=C1C(=O)O	5.70
COc1cccc2c1C(=O)c1c(O)c3c(c(O)c1C2=O)C[C@@](O)(C(=O)CO)C[C@@H]3O[C@H]1C[C@H](N)[C@H](O)[C@H](C)O1 [DOXORUBICIN]	7.22

Input: State the recorded pIC50 for this entry: CC[C@H]1C[C@@]23OC(=O)C(=C2O)C(=O)[C@]2(CC)[C@@H](C=C[C@@H]4[C@@H](O[C@H]5C[C@@H](O)[C@H](NC(=O)c6[nH]c(Cl)cc6Cl)[C@@H](C)O5)[C@@H](C)CC[C@@H]42)CCCC/C=C/[C@@]3(C)C=C1C(=O)O
Output: 5.05

* * *

Here the recorded MIC is given for each entry.
test system: Enterococcus faecium; assay: Antibacterial activity against vancomycin-sensitive Enterococcus faecium isolate L568 by broth microdilution method; type: functional
Expressed in µg/mL, but write only the number.

Here is how some compounds turned out for MIC.
CC[C@H]1C[C@@]23OC(=O)C(=C2O)C(=O)[C@]2(CC)[C@@H](C=C[C@@H]4[C@@H](O[C@H]5C[C@@H](O)[C@H](NC(=O)c6[nH]ccc6Br)[C@@H](C)O5)[C@@H](C)CC[C@@H]42)CCCC/C=C/[C@@]3(C)C=C1C(=O)O	64
CC[C@H]1C[C@@]23OC(=O)C(=C2O)C(=O)[C@]2(CC)[C@@H](C=C[C@@H]4[C@@H](O[C@H]5C[C@@H](O)[C@H](NC(=O)c6[nH]c(Cl)c(Cl)c6Cl)[C@@H](C)O5)[C@@H](C)CC[C@@H]42)CCCC/C=C/[C@@]3(C)C=C1C(=O)O	16
CC[C@H]1C[C@@]23OC(=O)C(=C2O)C(=O)[C@]2(CC)[C@@H](C=C[C@@H]4[C@@H](O[C@H]5C[C@@H](O)[C@H](NC(=O)c6[nH]c(Cl)cc6Cl)[C@@H](C)O5)[C@@H](C)CC[C@@H]42)CCCC/C=C/[C@@]3(C)C=C1C(=O)O	8

Input: Param readout= MIC; system= Enterococcus faecium; entry= CC[C@H]1C[C@@]23OC(=O)C(=C2O)C(=O)[C@]2(CC)[C@@H](C=C[C@@H]4[C@@H](O[C@H]5C[C@@H](O)[C@H](NC(=O)c6[nH]cc(Br)c6Br)[C@@H](C)O5)[C@@H](C)CC[C@@H]42)CCCC/C=C/[C@@]3(C)C=C1C(=O)O ; returns value.
Output: 32
